// provenance: patent US20240084003A1

# measurement.target: T1, monkey CD22 protein (ACROBiosystems, catalog number SI2-R52Ha) (monkey, UniProt F6W485 20-688)
# T1 construct: commercial protein; also called monkey CD22-ECD; monkey CD22-ECD-His
# T1 sequence: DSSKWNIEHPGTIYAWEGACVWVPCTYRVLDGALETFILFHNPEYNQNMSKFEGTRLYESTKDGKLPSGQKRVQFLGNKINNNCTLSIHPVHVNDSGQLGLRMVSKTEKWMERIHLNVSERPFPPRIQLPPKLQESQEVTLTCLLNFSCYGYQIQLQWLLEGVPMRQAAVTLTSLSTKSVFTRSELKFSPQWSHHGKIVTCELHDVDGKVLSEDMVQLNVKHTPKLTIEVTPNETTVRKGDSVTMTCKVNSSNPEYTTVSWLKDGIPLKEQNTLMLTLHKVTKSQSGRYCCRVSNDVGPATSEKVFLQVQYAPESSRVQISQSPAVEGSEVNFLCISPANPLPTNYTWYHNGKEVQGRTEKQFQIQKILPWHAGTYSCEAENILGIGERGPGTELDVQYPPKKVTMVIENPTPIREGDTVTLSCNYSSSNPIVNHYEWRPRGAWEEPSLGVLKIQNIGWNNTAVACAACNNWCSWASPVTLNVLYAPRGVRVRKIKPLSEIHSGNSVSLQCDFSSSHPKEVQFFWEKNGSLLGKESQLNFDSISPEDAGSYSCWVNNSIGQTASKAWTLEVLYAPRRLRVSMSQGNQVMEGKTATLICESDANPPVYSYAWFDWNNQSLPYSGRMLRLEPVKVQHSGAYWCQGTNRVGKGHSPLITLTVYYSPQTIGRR
# test.description: ELISA, coated monkey CD22 protein, antibody 100 nM
Assign labels as follows, please: class 1 for OD450 below 2 OD450; class 0 for OD450 equal to or exceeding 2 OD450.

- binder: "F1.120.15 (antibody, human IgG1, kappa, V domains shown, human-murine chimeric IgG1 kappa) VH: QVQLQQSGPELVKPGASVKISCKASGNAFSNSWMNWVKQRPGKGLEWIGRVYSEDGDTQYNGKFRDKATLTADRSTSTAYMQLSSLTSEDSAVYFCARWLIYYGTYGAMDYWGQGTSVTVSS VL: DIQMTQTTSSLSASLGDRVTISCRASQDINNYLNWYHQKPDGTVKLLIYFTSRPYSGVPSRFSGSGSGTDYSLTISNLEQEDIATYFCQQGNTLPWTFGGGTKLEIKR"
  cat: "class 1"
- binder: "F2.42.9 (antibody, human IgG1, lambda, V domains shown, human-murine chimeric IgG1 lambda; VL name legible) VH: QVTLKESGPGILQPSQTLSLTCSFSGFSLSTFDRGVGWIRQPSGKGLEWLAHIWWNDKKFYNPVLKSRLTISKDTSKNQVFLTIANVDSADTATYSCARIVWDKYYFDYWGQGIPLTVSS VL: QLVLTQSSSASFSLGASAKLTCTLSSQHSAYTIEWYQQQPLKPPKFVMDLKKDGSHSTGDGIPARFSGSSSGADRYLTISNIQPEDEAIYICGVGDTIKEQYVFGGGTKVTVLG"
  cat: "class 0"
- binder: "F2.173.9 (antibody, human IgG1, lambda, V domains shown, human-murine chimeric IgG1 lambda) VH: EVQLVESGGDLVKPGESLKLSCEASGFTFSNYAMSWVRQTPDRRLEWVATISSIGSFTYYSDSVKGRFTISRDNVKSTLHLQMNNLKSGDTAIYFCARLGVYFDSWGQGTTLTVSS VL: QLVLTQSSSASFSLGASAKLTCTLSSQHSTYTIEWYQQQPHKPPKFVMEIKKDGSHYTGDGIPDRFSGSSSGADRYLSISNIQPEDETIYICGVSDMIKDQFVYVFGGGTKVTVLG"
  cat: "class 1"
- binder: "F1.200.11 (antibody, human IgG1, kappa, V domains shown, human-murine chimeric IgG1 kappa) VH: QNQLVQSGPELKKPGETVKISCKASGYTFTTAGMQWVQKMPGKGFKWIGWINTLSGEPKYAEDFKGRFAFSLETSATTAYLQISNLKNEDTATYFCARAYYSNLYWYFDVWGTGTTVTVSS VL: DIVMTQSQKFMSTTVGDRVTITCKASQNVVTAVAWYQQKPGQSPKVLIYSASNRYSGVPDRFTGSGSGTDFTLTISNMHSEDLANYFCHQYSSYPFTFGSGTKLEIKR"
  cat: "class 1"
- binder: "F1.172.13 (antibody, human IgG1, kappa, V domains shown, human-murine chimeric IgG1 kappa) VH: QVTLKESGPGILQSSQTLSLTCSFSGFSLSTSGMGVSWIRQPSGKGLEWLAHIYWDDDKRYNPSLKSRLTISKDTSRNQVFLKITSVDTADTATYYCARAPPPNWDEYYFDYWGQGTTLTVSS VL: DIQMTQSPASLSASVGETVTITCRASGNIHNSLAWYQQKQGKSPQLLVHNAKTLADGVPSRFSGSGSGTQYSLKINSLQPEDFGSYYCQHFWSTPPFGGGTKLEIKR"
  cat: "class 0"
